# assay: in vitro
# applied-conditions: human, hela cells, % viability
readout-name: viability at 28.5 h, 10 µM (%)

compound	readout-name	units-symbol	number
O=C(C1=C(O)C(=O)N(Cc2cccnc2)C1c1ccncc1)c1ccc(Cl)cc1 (stereo not drawn)	viability at 28.5 h, 10 µM	%	94.8
CC(C)Cn1ncc2cc(C(=O)Nc3cccnc3N(C)C)cnc21	viability at 28.5 h, 10 µM	%	87.1
CCCCOc1ccc(-c2nnn(CC(=O)NCc3ccccc3)n2)cc1	viability at 28.5 h, 10 µM	%	96.8
CNC(=O)c1oc(-c2ccc(OC)cc2)c(-c2ccc(OC)cc2)c1C(=O)NC	viability at 28.5 h, 10 µM	%	90.9
COc1cc(C(=O)N2CCCC3(CCN(C(=O)Cc4c[nH]c5ccccc45)C3)C2)cc(OC)c1OC (stereo not drawn)	viability at 28.5 h, 10 µM	%	96
O=C(NN1C(=O)c2ccccc2C1=O)c1cc(C(=O)NN2C(=O)c3ccccc3C2=O)cc(N2C(=O)c3ccccc3C2=O)c1	viability at 28.5 h, 10 µM	%	88.2
CCn1c(SCC(=O)N2c3ccccc3Sc3ccccc32)nnc1C(C)Oc1ccccc1 (stereo not drawn)	viability at 28.5 h, 10 µM	%	105
CCCN1CC(NS(=O)(=O)c2cc(OC)c(C)cc2OC)CC1=O (stereo not drawn)	viability at 28.5 h, 10 µM	%	75.4
CN(C(=O)CSc1ncccc1C#N)c1ccccc1	viability at 28.5 h, 10 µM	%	98.3
C#CCOc1ccc(/C=C2/SC(=S)N(CCC(=O)O)C2=O)cc1	viability at 28.5 h, 10 µM	%	94.1
O=C1NCCN1CCOc1nccnc1-c1ccsc1	viability at 28.5 h, 10 µM	%	93.4
CC1(C)CN(Cc2cccc(-c3ccccn3)c2)CCS1(=O)=O	viability at 28.5 h, 10 µM	%	99.8
Cc1ccc(C(=O)Nc2cccc(CCc3ccncc3)c2)c(=O)n1C	viability at 28.5 h, 10 µM	%	84.4
O=C1CC(c2ccccc2)CC(=O)C1=CNCCN1CCOCC1 (stereo not drawn)	viability at 28.5 h, 10 µM	%	94
Cc1ccc(Nc2nc(N)nc(CSCCO)n2)cc1	viability at 28.5 h, 10 µM	%	97.1

###

Quick reference for activity at 1 µM among some compounds
# Test system: C. trachomatis L2/434/Bu expressing GFP (CTL2-GFP)
# Construct: L2/434/Bu GFP intracellular growth in HeLa cells
# assay: microbe, parasite or virus in culture
# Set-up: C. trachomatis total inclusion area by high-content imaging, normalised to DMSO
# applied-conditions: Chlamydia trachomatis, HeLa, 28.5 h; total inclusion area; read-out: % of control remaining

compound	activity at 1 µM [%]
Cc1noc(NS(=O)(=O)c2ccc(NC(=O)CCN3C(=O)c4ccccc4C3=O)cc2)c1C	99.8
Clc1ccc2nc(-c3ccccn3)[nH]c2c1	70.7
O=[N+]([O-])c1ccc2[nH]c3c(c2c1)CCCC3NC1CCN(CCc2ccccc2)CC1 (stereo not shown)	60.6
O=S(=O)(Nc1nccs1)c1ccc(Nc2ncnc3ccccc23)cc1 [CBK269487C]	140
Cc1ccc(S(=O)(=O)Nc2ccc(S(=O)(=O)Nc3nccs3)cc2)c([N+](=O)[O-])c1	23
CN(C)CCNc1nc(-c2ccc(Cl)cc2)nc2ccccc12	64.3
C/C(=N\Nc1nnc2c(n1)[nH]c1ccccc12)c1ccccn1	18.7

Origin of measurements: paper PMC12040169
